The origin of these recorded values is ChEMBL document CHEMBL1140929.

Examples of molecules with documented Drug uptake follow.
tested on: Heart; experiment: Biodistribution in NMRI mouse heart at 3.7 MBq/mL, iv after 2 mins by gamma counting; format: ADME, organism-based; conditions: in vivo
ENDPOINT_LABEL: Drug uptake

>>> observed_result("[11CH3]Nc1ccc(-c2nc3ccc(O)cc3s2)cc1")
"0.6 %ID"
>>> observed_result("Cc1ccc2nc(-c3ccc([18F])cc3)sc2c1")
"0.9 %ID"
>>> observed_result("COc1ccc2nc(-c3ccc([18F])cc3)sc2c1")
"0.8 %ID"
>>> observed_result("Oc1ccc2nc(-c3ccc([18F])cc3)sc2c1")
"0.9 %ID"
